target: Replicase polyprotein 1ab (Severe acute respiratory syndrome coronavirus 2, UniProt P0DTD1)

{"record-smiles": "Cc1cc(C(=O)N[C@@H](Cc2cccc3ccccc23)C(=O)N[C@@H](CC(C)C)C(=O)N[C@H](C=O)C[C@@H]2CCCNC2=O)no1", "IC50": "166 nM"}

* * *

# Lookup of reported pEC50 keyed by entry
system: SARS-CoV-2; experiment: Antiviral activity against SARS-CoV-2 infected in Vero cells assessed as reduction in viral yield measured after 48 hrs by qRT-PCR analysis; type: functional, organism-based; details: Severe acute respiratory syndrome coronavirus 2, Vero, 48 h
pEC50: −log10 of the molar value.
measured-parameter: pEC50

{"record-smiles": "CC(C)C[C@H](NC(=O)[C@H](Cc1cccc2ccccc12)NC(=O)OCc1ccccc1)C(=O)N[C@H](C=O)Cn1ccnn1", "tgt": "SARS-CoV-2", "result": 5.33}
{"record-smiles": "CCC(CC)COC(=O)[C@H](C)N[P@](=O)(OC[C@H]1O[C@@](C#N)(c2ccc3c(N)ncnn23)[C@H](O)[C@@H]1O)Oc1ccccc1", "tgt": "SARS-CoV-2", "result": 5.49}
{"record-smiles": "CC(C)(C)[C@H](NC(=O)C(F)(F)F)C(=O)N1C[C@H]2[C@@H]([C@H]1C(=O)N[C@H](C#N)C[C@@H]1CCNC1=O)C2(C)C", "tgt": "SARS-CoV-2", "result": 5.43}
